Here the recorded Retention_time is given for each entry.
Assay remarks: Retention time of the compound by HPLC analysis
Assay type: physicochemical
Where a SMILES comes first, the peptide text is derived from it. Bridges are numbered along the chain shown (N, C = ends). Roman numbers before positions name the chains, in order. [ ]: non-standard residue; d: D form. The star is where a group is joined. Quinaldoyl(3-OH) = O=C(c1nc2ccccc2cc1O)*; NMeV = CN[C@H](C(=O)O)C(C)C; Pip = O=C(O)[C@@H]1CCCCN1; dDap = NC[C@@H](N)C(=O)O
Assay readout: Retention_time

| Compound | Assay readout | Value reported |
| --- | --- | --- |
| CC(C)[C@H]1C(=O)NC[C@@H](NC(=O)c2nc3ccccc3cc2O)C(=O)N2CCCC[C@H]2C(=O)NCC(=O)NCC(=O)N(C)[C@@H](C(C)C)C(=O)NC[C@@H](NC(=O)c2nc3ccccc3cc2O)C(=O)N2CCCC[C@H]2C(=O)NCC(=O)NCC(=O)N1C (I: {Quinaldoyl(3-OH)}-[dDap][Pip]GG[NMeV] / II: {Quinaldoyl(3-OH)}-[dDap][Pip]GG[NMeV]; amide I:1-II:C, I:C-II:1) | Retention_time | 15.1 min |
| CCN1CC(=O)N(C)[C@@H](C(C)C)C(=O)NC[C@@H](NC(=O)c2nc3ccccc3cc2O)C(=O)N2CCCC[C@H]2C(=O)NCC(=O)N(CC)CC(=O)N(C)[C@@H](C(C)C)C(=O)NC[C@@H](NC(=O)c2nc3ccccc3cc2O)C(=O)N2CCCC[C@H]2C(=O)NCC1=O | Retention_time | 18.5 min |

* * *

Assay remarks: Retention time of the compound by HPLC analysis
Type: physicochemical
Assay readout: Retention_time (min)

| Structure smiles string | Value reported |
| --- | --- |
| CN1CC(=O)N2CCCC[C@H]2COC[C@@H](NC(=O)c2nc3ccccc3cc2O)C(=O)N2CCCC[C@H]2C(=O)NCC(=O)N(C)CC(=O)N2CCCC[C@H]2C(=O)NC[C@@H](NC(=O)c2nc3ccccc3cc2O)C(=O)N2CCCC[C@H]2C(=O)NCC1=O | 16.6 |
| CC[C@@H](C)[C@H]1C(=O)NC[C@@H](NC(=O)c2nc3ccc(Br)cc3cc2O)C(=O)N2CCCC[C@H]2C(=O)NCC(=O)N(C)CC(=O)N(C)[C@@H]([C@H](C)CC)C(=O)NC[C@@H](NC(=O)c2nc3ccc(Br)cc3cc2O)C(=O)N2CCCC[C@H]2C(=O)NCC(=O)N(C)CC(=O)N1C | 21 |
| CC(C)[C@H]1C(=O)O[C@H](C)[C@@H](NC(=O)c2nc3ccccc3cc2O)C(=O)N2CCCC[C@H]2C(=O)NCC(=O)N(C)CC(=O)N(C)[C@@H](C(C)C)C(=O)O[C@H](C)[C@@H](NC(=O)c2nc3ccccc3cc2O)C(=O)N2CCCC[C@H]2C(=O)NCC(=O)N(C)CC(=O)N1C | 21.6 |
| CC(C)[C@H]1C(=O)NC[C@@H](NC(=O)c2nc3ccccc3cc2O)C(=O)N2CCCC[C@H]2C(=O)NCC(=O)N(C)CC(=O)N(C)[C@@H](C2CCCCC2)C(=O)NC[C@@H](NC(=O)c2nc3ccccc3cc2O)C(=O)N2CCCC[C@H]2C(=O)NCC(=O)N(C)CC(=O)N1C | 18.9 |
| CC[C@H](C)[C@H]1C(=O)NC[C@@H](NC(=O)c2nc3ccccc3cc2O)C(=O)N2CCCC[C@H]2C(=O)NCC(=O)N(C)CC(=O)N(C)[C@@H]([C@@H](C)CC)C(=O)NC[C@@H](NC(=O)c2nc3ccccc3cc2O)C(=O)N2CCCC[C@H]2C(=O)NCC(=O)N(C)CC(=O)N1C | 18.8 |
| CC(C)[C@H]1C(=O)NC[C@@H](NC(=O)c2nc3ccccc3cc2O)C(=O)N2CCCC[C@H]2C(=O)NCC(=O)N(C)CC(=O)N(C)C(C)(C)C(=O)NC[C@@H](NC(=O)c2nc3ccccc3cc2O)C(=O)N2CCCC[C@H]2C(=O)NCC(=O)N(C)CC(=O)N1C | 15.8 |
| CC(C)[C@H]1COC[C@@H](NC(=O)c2nc3ccccc3cc2O)C(=O)N2CCCC[C@H]2C(=O)NCC(=O)N(C)CC(=O)N(C)[C@@H](C(C)C)C(=O)NC[C@@H](NC(=O)c2nc3ccccc3cc2O)C(=O)N2CCCC[C@H]2C(=O)NCC(=O)N(C)CC(=O)N1C | 18.4 |
| CC(C)[C@H]1C(=O)NC[C@@H](NC(=O)c2nc3ccccc3cc2O)C(=O)N2CCCC[C@H]2C(=O)NCC(=O)N(C)CC(=O)N(C)[C@@H](C(C)C)C(=O)NC[C@@H](NC(=O)c2nc3ccccc3cc2O)C(=O)N2CCCC[C@H]2C(=O)NCC(=O)N(C)CC(=O)N1C | 17.1 |
| CC(C)[C@H]1C(=O)NC[C@@H](NC(=O)c2nc3ccccc3cc2O)C(=O)N2CCCC[C@H]2C(=O)NCC(=O)N(C)CC(=O)N(C)[C@@H]([C@@H](C)O)C(=O)NC[C@@H](NC(=O)c2nc3ccccc3cc2O)C(=O)N2CCCC[C@H]2C(=O)NCC(=O)N(C)CC(=O)N1C | 10.6 |
| CC(C)[C@H]1C(=O)N(C)C[C@@H](NC(=O)c2nc3ccccc3cc2O)C(=O)N2CCCC[C@H]2C(=O)NCC(=O)N(C)CC(=O)N(C)[C@@H](C(C)C)C(=O)N(C)C[C@@H](NC(=O)c2nc3ccccc3cc2O)C(=O)N2CCCC[C@H]2C(=O)NCC(=O)N(C)CC(=O)N1C | 17.7 |
| CC(C)[C@H]1C(=O)NC[C@@H](NC(=O)c2nc3ccccc3cc2O)C(=O)N2CCCC[C@H]2C(=O)NCCOCC(=O)N(C)[C@@H](C(C)C)C(=O)NC[C@@H](NC(=O)c2nc3ccccc3cc2O)C(=O)N2CCCC[C@H]2C(=O)NCCOCC(=O)N1C | 16 |
| O=C(N[C@@H]1CNC(=O)[C@@H]2CCCCN2C(=O)COCCNC(=O)[C@@H]2CCCCN2C(=O)[C@H](NC(=O)c2nc3ccccc3cc2O)CNC(=O)[C@@H]2CCCCN2C(=O)COCCNC(=O)[C@@H]2CCCCN2C1=O)c1nc2ccccc2cc1O | 16.1 |
| CC(C)[C@H]1C(=O)NC[C@@H](NC(=O)c2nc3ccccc3cc2O)C(=O)N2CCCC[C@H]2C(=O)NCC(=O)N(C)CC(=O)N(C)[C@@H](C(C)C)C(=O)OC[C@@H](NC(=O)c2nc3ccccc3cc2O)C(=O)N2CCCC[C@H]2C(=O)NCC(=O)N(C)CC(=O)N1C | 19.6 |
| CN1CC(=O)N2CCCC[C@H]2C(=O)NC[C@@H](NC(=O)c2nc3ccccc3cc2O)C(=O)N2CCCC[C@H]2C(=O)NCC(=O)N(C)CC(=O)N2CCCC[C@H]2C(=O)NC[C@@H](NC(=O)c2nc3ccccc3cc2O)C(=O)N2CCCC[C@H]2C(=O)NCC1=O | 15.7 |
| CC(C)[C@H]1C(=O)NC[C@@H](NC(=O)c2nc3ccccc3cc2O)C(=O)N2CCCC[C@H]2C(=O)NCC(=O)N(C)CC(=O)N(C)[C@@H]([C@H](C)OC(C)(C)C)C(=O)NC[C@@H](NC(=O)c2nc3ccccc3cc2O)C(=O)N2CCCC[C@H]2C(=O)NCC(=O)N(C)CC(=O)N1C | 18.4 |
